conditions: in isopropanol, 322.65 K
outcome measure: solubility (mole fraction)

substance smiles: COc1cc(Cc2cnc(N)nc2N)cc(OC)c1OC
outcome measure: solubility (mole fraction)
result: 0.00141

###

details: in isopropanol, 293.15 K
outcome measure: solubility (mole fraction)

substance smiles: COc1cc(Cc2cnc(N)nc2N)cc(OC)c1OC
outcome measure: solubility (mole fraction)
result: 0.000227

###

settings: in ethanol, 298.45 K

substance smiles: COc1cc(Cc2cnc(N)nc2N)cc(OC)c1OC
solubility (mole fraction): 0.00092

###

settings: in ethanol, 312.95 K
outcome measure: solubility (mole fraction)

substance smiles: COc1cc(Cc2cnc(N)nc2N)cc(OC)c1OC
outcome measure: solubility (mole fraction)
result: 0.00173
